target.desc: IMP-1 (Serratia marcescens)
Sequence (P52699 whole entry, looked up, species assumed): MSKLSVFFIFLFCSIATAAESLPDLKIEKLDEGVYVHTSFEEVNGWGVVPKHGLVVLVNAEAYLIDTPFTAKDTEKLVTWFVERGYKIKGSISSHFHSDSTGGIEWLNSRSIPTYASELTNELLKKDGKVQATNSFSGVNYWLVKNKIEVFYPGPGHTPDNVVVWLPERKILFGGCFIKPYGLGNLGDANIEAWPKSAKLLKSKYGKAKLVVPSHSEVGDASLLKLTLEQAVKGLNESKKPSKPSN
assay.details: biochemical
Format: biochemical
experimental.context: fluorescence assay, CCF2-FA substrate, 2 pM enzyme, 2 hours at 25° C.; read-out: IMP-1 IC50
measurement.label: pIC50
pIC50 here is simply -log10 of the concentration when that concentration is written in mol/L.

NC[C@H](N)CNS(=O)(=O)c1ccc(-c2ccc(N)nc2)c(-c2nn[nH]n2)c1S(N)(=O)=O | 9.10
NCCN1CC[C@@H](NS(=O)(=O)c2ccc(-c3cccc4[nH]c(N)nc34)c(-c3nn[nH]n3)c2S(N)(=O)=O)C1 | 9.07

Now examine the next entry.
Recorded result, `NC[C@H](N)CNS(=O)(=O)c1ccc(-c2cccc3[nH]c(N)nc23)c(-c2nn[nH]n2)c1S(N)(=O)=O` , pIC50: 9.18
